# Measured target: GPR84 (Homo sapiens (Human), UniProt Q9NQS5)
# Sequence (Q9NQS5 whole entry): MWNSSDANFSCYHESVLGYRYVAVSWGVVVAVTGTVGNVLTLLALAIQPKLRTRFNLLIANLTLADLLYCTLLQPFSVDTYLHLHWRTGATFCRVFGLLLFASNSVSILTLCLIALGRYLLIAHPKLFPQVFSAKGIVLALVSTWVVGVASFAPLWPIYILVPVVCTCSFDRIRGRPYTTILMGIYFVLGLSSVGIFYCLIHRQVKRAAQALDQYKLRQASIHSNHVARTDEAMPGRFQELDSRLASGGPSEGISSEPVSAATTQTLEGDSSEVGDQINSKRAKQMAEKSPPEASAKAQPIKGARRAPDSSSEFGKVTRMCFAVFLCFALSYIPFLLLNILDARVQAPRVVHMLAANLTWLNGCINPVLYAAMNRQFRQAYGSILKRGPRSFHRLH
# Test details: Gai biosensor BRET assay (GPR84-mediated activation of Gai, antagonist mode against agonist ZQ-16)
# Assay type: cell-based
# Protocol conditions: compound tested at 10 μM (concentration code D)
Test readout: inhibition at 10 µM

| Molecule | Experimental result |
| --- | --- |
| Cc1cc(OCc2ncccn2)cc(=O)n1C(C)c1ccc(C#CC2CC2)c(F)c1 (stereo not shown) | > 75% |
| Cc1ccc([C@@H](C)n2c(C)cc(OCc3ncccn3)cc2=O)cc1 | < 25% |
| O=C(CC1CCOc2ccccc21)N1Cc2ccc(C#CC3CC3)cc2C1 (stereo not shown) | < 25% |
| Cc1cc(OCc2ncccn2)cc(=O)n1[C@H](C)c1ccc(C#CCNC(=O)OC(C)C)cc1 | < 25% |
| Cc1cc(OCc2ncc[nH]2)cc(=O)n1[C@H](C)c1ccc(C#CC2CC2)cc1 | 25 to 50% |
| Cc1cc(C#CC2CC2)ccc1C(C)n1c(C)cc(OCC2COCCO2)cc1=O (stereo not shown) | < 25% |
| Cc1cc(OCn2ccnc2)cc(=O)n1[C@H](C)c1ccc(C#CC2CC2)cc1 | > 75% |
| Cc1cc(OCc2ncccn2)cc(=O)n1C(C)c1ccc(C#CCNc2ccccc2)cc1 (stereo not shown) | < 25% |
| Cc1cc(OC[C@H]2COc3ncccc3O2)cc(=O)n1Cc1cccc(C#CC2CC2)c1 | < 25% |
| Cc1cc(OCC2COCCO2)cc(=O)n1Cc1cc(C#CC2CC2)ccc1F (stereo not shown) | < 25% |
| Cc1cc(OCc2ncccn2)cc(=O)n1C(C)c1ccc(C#CC2CC2)nc1 (stereo not shown) | 25 to 50% |
| Cc1cc(OCC2CCOCC2)cc(=O)n1[C@H](C)c1ccc(C#CCO)cc1 (stereo in doubt) | 25 to 50% |
| Cc1cc(OCc2ccccc2Cl)cc(=O)n1[C@H](C)c1ccc(C#CC2CC2)cc1 | < 25% |
| Cc1cc(OCc2ncccn2)cc(=O)n1[C@H](C)c1ccc(N2CC(C)(C)C2)cc1 | < 25% |
| C#Cc1ccc(C(C)n2c(C)cc(OCc3ncccn3)cc2=O)cc1 (stereo not shown) | < 25% |
| Cc1cc(OCC2CCOCC2)cc(=O)n1[C@H](C)c1ccc(N2CC(C)(C)C2)cc1 (stereo in doubt) | 25 to 50% |
